# Test system: PANC-1
# TEST_SUMMARY: Cytotoxicity against human PANC1 cells in nutrient-deprived condition assessed as preferential cell death after 24 hrs by WST-8 assay
ENDPOINT_LABEL: PC50 (µM)
Field format: number, assumed µM, no unit text.

These recorded examples may help you get a feel for the data.
given_smiles=O=c1cc(-c2ccccc2)oc2cc(O)cc(O)c12 result_number=88.7
given_smiles=O=C(O)/C=C/c1ccc(O)cc1 result_number=77
given_smiles=O=c1c(O)c(-c2ccccc2)oc2cc(O)cc(O)c12 result_number=22.1

Data request: Name the reported PC50 value associated with the compound "COc1ccc(/C=C/C(=O)OC/C=C/c2ccccc2)cc1OC"
Data returned: 98.9

Data request: Name the reported PC50 value associated with the compound "CCC(=O)O[C@H]1C(=O)c2c(O)cc(O)cc2O[C@@H]1c1ccccc1"
Data returned: 18.2

Data request: Name the reported PC50 value associated with the compound "COc1cc(O)c2c(c1)O[C@H](c1ccccc1)[C@@H](O)C2=O"
Data returned: 74.2

Data request: Name the reported PC50 value associated with the compound "C=C[C@H](c1ccc(O)c(OC)c1)c1c(O)cc(O)c2c(=O)cc(-c3ccccc3)oc12"
Data returned: 12.7

Data request: Name the reported PC50 value associated with the compound "COc1cc(-c2oc3cc(O)cc(O)c3c(=O)c2OC)ccc1O"
Data returned: 59.8
